# Test system: human PKK mRNA
# protocolDetails: Dose-dependent antisense inhibition of human PKK in HepaRG cells, 0.19-5.00 uM (Example 5)
# Format: cell-based
# conditionDetails: 0.19 0μM, HepaRG cells, electroporation, approximately 16 hours; Table 41
Strand notation (5' to 3'): a small letter for the sugar, then the base; units joined by * are phosphorothioate-linked, units joined directly phosphodiester-linked; [ ] holds rarer units or linkages, { } end groups; capitals alone tell only the bases. e = 2'-O-(2-methoxyethyl) (MOE); [5mC] = 5-methylcytosine; d = 2'-deoxy (DNA)
Threshold rule: percent inhibition of PKK at 0.19 0μM greater than or equal to 20% is Met; below that, Not met.

substance="546846 (e[5mC]*eT*eG*eT*e[5mC]*d[5mC]*dT*dA*dT*dA*dT*d[5mC]*dA*d[5mC]*dT*eG*eT*e[5mC]*e[5mC]*eT; antisense) [compound 546846]" targetundertest="human PKK mRNA" label=Met
substance="546825 (eG*eT*eA*eT*e[5mC]*dA*d[5mC]*dT*dG*dT*dA*d[5mC]*dT*dA*dG*eT*eT*eT*e[5mC]*e[5mC]; antisense) [compound 546825]" targetundertest="human PKK mRNA" label=Met
substance="531231 (eT*eA*eT*e[5mC]*eA*d[5mC]*dT*dG*dT*dA*d[5mC]*dT*dA*dG*dT*eT*eT*e[5mC]*e[5mC]*eT) [compound 531231]" targetundertest="human PKK mRNA" label=Met
substance="546827 (e[5mC]*eA*eG*eT*eA*dT*d[5mC]*dA*d[5mC]*dT*dG*dT*dA*d[5mC]*dT*eA*eG*eT*eT*eT; antisense) [compound 546827]" targetundertest="human PKK mRNA" label=Met
substance="547602 (antisense eT*e[5mC]*eA*e[5mC]*eT*dG*dT*dA*d[5mC]*d[5mC]*dT*dA*dT*dA*dA*e[5mC]*eT*e[5mC]*eT*eA) [compound 547602]" targetundertest="human PKK mRNA" label="Not met"

----------
# System: human PKK mRNA
# protocolDetails: Dose-dependent antisense inhibition of human PKK in HepaRG cells, 0.11-3.00 uM (Example 6)
# Assay type: cell-based
# conditionDetails: electroporation, 0.11 μM, approx. 16 hours, relative to untreated control cells
Strand notation (5' to 3'): a small letter for the sugar, then the base; units joined by * are phosphorothioate-linked, units joined directly phosphodiester-linked; [ ] holds rarer units or linkages, { } end groups; capitals alone tell only the bases. e = 2'-O-(2-methoxyethyl) (MOE); k = constrained ethyl (cEt); [5mC] = 5-methylcytosine; d = 2'-deoxy (DNA)
readout: percent inhibition of PKK mRNA, 0.11 μM

substance="547807 (eG*e[5mC]*kA*dG*dT*dA*dT*dT*dG*dG*dG*d[5mC]*dA*kT*kT*eT; antisense) [compound 547807]" readout="percent inhibition of PKK mRNA, 0.11 μM" result=26%
substance="548061 (eG*e[5mC]*kT*dT*dG*dT*dG*dT*d[5mC]*dA*d[5mC]*d[5mC]*dT*kT*kT*eG; antisense) [compound 548061]" readout="percent inhibition of PKK mRNA, 0.11 μM" result=26%
substance="548005 (eA*eG*kA*dG*dT*dA*dA*d[5mC]*d[5mC]*dA*dG*dA*dG*k[5mC]*kT*e[5mC]; antisense) [compound 548005]" readout="percent inhibition of PKK mRNA, 0.11 μM" result=53%
substance="547857 (antisense e[5mC]*eT*k[5mC]*dA*dT*dA*dT*d[5mC]*dA*dA*d[5mC]*dT*d[5mC]*k[5mC]*kT*eT) [compound 547857]" readout="percent inhibition of PKK mRNA, 0.11 μM" result=36%
substance="547849 (antisense eA*eA*kT*dG*dT*d[5mC]*dT*d[5mC]*dG*dA*dT*dG*dG*k[5mC]*kA*eA) [compound 547849]" readout="percent inhibition of PKK mRNA, 0.11 μM" result=36%
substance="548348 (antisense eT*eG*kA*dG*dT*dG*dA*dT*dG*d[5mC]*d[5mC]*dT*dT*k[5mC]*k[5mC]*eA) [compound 548348]" readout="percent inhibition of PKK mRNA, 0.11 μM" result=19%
substance="548106 (antisense e[5mC]*e[5mC]*kA*dT*dG*dT*dA*d[5mC]*dT*d[5mC]*dA*dG*d[5mC]*kG*kA*e[5mC]) [compound 548106]" readout="percent inhibition of PKK mRNA, 0.11 μM" result=53%
substance="547824 (e[5mC]*eG*kA*dT*dG*dT*dA*d[5mC]*dT*dT*dT*dT*dG*kG*k[5mC]*eA; antisense) [compound 547824]" readout="percent inhibition of PKK mRNA, 0.11 μM" result=45%
substance="547946 (eG*eA*kA*d[5mC]*dT*dT*dG*dG*dT*dG*dT*dG*d[5mC]*k[5mC]*kA*e[5mC]; antisense) [compound 547946]" readout="percent inhibition of PKK mRNA, 0.11 μM" result=0%
substance="548558 (antisense eA*eA*k[5mC]*dA*dT*dT*dG*dT*dG*dT*dA*dG*d[5mC]*kT*kG*e[5mC]) [compound 548558]" readout="percent inhibition of PKK mRNA, 0.11 μM" result=53%
substance="548055 (eG*eT*kA*dA*dT*dT*d[5mC]*dA*dA*dA*dG*dG*dA*kG*k[5mC]*e[5mC]; antisense) [compound 548055]" readout="percent inhibition of PKK mRNA, 0.11 μM" result=43%
substance="548174 (eT*e[5mC]*kT*d[5mC]*dA*dG*dT*dT*dG*d[5mC]*dG*dA*d[5mC]*k[5mC]*kT*e[5mC]; antisense) [compound 548174]" readout="percent inhibition of PKK mRNA, 0.11 μM" result=20%

----------
# Tested on: human PKK mRNA
# protocolDetails: Antisense inhibition of human PKK mRNA in HepaRG cells, 3,000 nM (Example 1)
# Type: cell-based
# conditionDetails: Table 1; PKK mRNA, HepaRG cells, 3,000 nM, electroporation, ~24 h, relative to untreated control cells
Strand notation (5' to 3'): a small letter for the sugar, then the base; units joined by * are phosphorothioate-linked, units joined directly phosphodiester-linked; [ ] holds rarer units or linkages, { } end groups; capitals alone tell only the bases. e = 2'-O-(2-methoxyethyl) (MOE); [5mC] = 5-methylcytosine; d = 2'-deoxy (DNA)
readout: % inhibition

substance="530954 (antisense eT*eG*eG*eA*eA*dG*dA*dA*dA*dA*d[5mC]*dT*dG*dA*dA*eT*eA*eG*e[5mC]*eA) [compound 530954]" targetundertest="human PKK mRNA" readout="% inhibition" result=47%
substance="530963 (antisense eT*eG*eG*eT*eG*d[5mC]*dA*d[5mC]*d[5mC]*dT*dT*dT*dT*dT*dT*eG*eG*e[5mC]*eA*eT) [compound 530963]" targetundertest="human PKK mRNA" readout="% inhibition" result=78%
substance="530977 (antisense eT*e[5mC]*e[5mC]*eA*eG*dA*dT*dA*dT*dG*dG*dT*dG*dT*dT*eT*eT*e[5mC]*eT*eT) [compound 530977]" targetundertest="human PKK mRNA" readout="% inhibition" result=55%

----------
Recorded % inhibition for the following substances
# Tested on: human PKK mRNA
# protocolDetails: Antisense inhibition of human PKK mRNA in HepaRG cells, 3,000 nM (Example 1)
# Format: cell-based
# conditionDetails: Table 4; HepaRG cells, electroporation with 3,000 nM antisense oligonucleotide, approx. 24 hours; PKK mRNA by RT-PCR (RTS3454), relative to untreated control cells
Strand notation (5' to 3'): a small letter for the sugar, then the base; units joined by * are phosphorothioate-linked, units joined directly phosphodiester-linked; [ ] holds rarer units or linkages, { } end groups; capitals alone tell only the bases. e = 2'-O-(2-methoxyethyl) (MOE); [5mC] = 5-methylcytosine; d = 2'-deoxy (DNA)
readout: % inhibition

substance="531178 (antisense eA*e[5mC]*e[5mC]*eA*e[5mC]*dA*dG*dG*dA*dA*dA*d[5mC]*dT*dG*dT*eA*eG*e[5mC]*eA*eA) [compound 531178]" result=72%
substance="531179 (antisense eG*eA*eT*eT*eG*dG*dA*d[5mC]*d[5mC]*d[5mC]*dA*dG*dA*d[5mC]*dA*e[5mC]*eT*eA*eT*eA) [compound 531179]" result=57%
substance="531237 (eG*eT*eG*eG*eA*dA*dT*dG*dT*d[5mC]*dA*dT*dG*dG*d[5mC]*eA*eA*eT*eT*eT; antisense) [compound 531237]" result=56%

----------
# System: human PKK mRNA
# protocolDetails: Antisense inhibition of human PKK mRNA in HepaRG cells, 5,000 nM (Example 2)
# Format: cell-based
# conditionDetails: HepaRG cells, electroporation with 5,000 nM antisense oligonucleotide, approximately 24 hours, PKK mRNA by RT-PCR (RTS3454), relative to untreated control cells; Table 5 experiment
Strand notation (5' to 3'): a small letter for the sugar, then the base; units joined by * are phosphorothioate-linked, units joined directly phosphodiester-linked; [ ] holds rarer units or linkages, { } end groups; capitals alone tell only the bases. e = 2'-O-(2-methoxyethyl) (MOE); [5mC] = 5-methylcytosine; d = 2'-deoxy (DNA)
readout: % inhibition (%)

substance="531231 (eT*eA*eT*e[5mC]*eA*d[5mC]*dT*dG*dT*dA*d[5mC]*dT*dA*dG*dT*eT*eT*e[5mC]*e[5mC]*eT) [compound 531231]" unittag=% quantitativeresult=98
substance="547293 (antisense e[5mC]*eA*eT*e[5mC]*eT*dG*dG*d[5mC]*dA*dG*dT*dA*dT*dT*dG*eG*eG*e[5mC]*eA*eT) [compound 547293]" unittag=% quantitativeresult=92
substance="547294 (antisense e[5mC]*eT*e[5mC]*eA*eT*d[5mC]*dT*dG*dG*d[5mC]*dA*dG*dT*dA*dT*eT*eG*eG*eG*e[5mC]) [compound 547294]" unittag=% quantitativeresult=85
substance="547277 (antisense e[5mC]*eA*e[5mC]*eA*eA*dT*dT*dG*d[5mC]*dT*dT*d[5mC]*dT*dT*dG*eG*eA*eG*eG*eT) [compound 547277]" unittag=% quantitativeresult=75
